Values compiled from the supplement of paper PMC8371130.

Items are presented alongside their recorded relative cell viability.
# Test system: HL-1
# Assay method text: relative cell viability (CellTiter-Glo) vs DMSO control (% of DMSO control); higher = more viable cells
# Particulars: oxygen condition: normoxia 72 h; 200 nM
Where a name gives a salt, the structure may show the parent alone.
Value kind: relative cell viability

>  <Compound>
CNCC[C@@H](Oc1ccccc1C)c1ccccc1 [Atomoxetine HCl]

>  <Measured target>
HL-1

>  <Value kind>
relative cell viability

>  <Assay result>
102

$$$$
>  <Compound>
Cl.N=C(N)NCCC[C@H](N)C(=O)O [L-Arginine HCl]

>  <Measured target>
HL-1

>  <Value kind>
relative cell viability

>  <Assay result>
104

$$$$
>  <Compound>
CN1C(CCl)Nc2cc(Cl)c(S(N)(=O)=O)cc2S1(=O)=O (stereo not given) [Methyclothiazide]

>  <Measured target>
HL-1

>  <Value kind>
relative cell viability

>  <Assay result>
106

$$$$
>  <Compound>
O=C(O)c1ccc(NC(=O)[C@H](Cc2ccc(O)cc2)NC(=O)c2ccccc2)cc1 [Bentiromide]

>  <Measured target>
HL-1

>  <Value kind>
relative cell viability

>  <Assay result>
106

$$$$
>  <Compound>
COc1cc(C(C)=O)ccc1OCCCN1CCC(c2noc3cc(F)ccc23)CC1

>  <Measured target>
HL-1

>  <Value kind>
relative cell viability

>  <Assay result>
109

$$$$
